- System: MS2 coat protein
- assay-notes: apparent KD of MS2 coat protein; higher = weaker reporter binding
- run-parameters: Eterna round: R107; input ligand: theophylline 20 uM
Rule: condition met for apparent KD of MS2 coat protein not less than 40 nM, condition not met for anything less.

sequence_text=UUCAGCUAGUCGGCCGCCACUACAAGAGGAUCACCCUUGUAGGUCCACACUGCUUCGGCAGUGAGUAGGACCGGGACUAGCUGAG cat="condition not met"
sequence_text="GAGUUCCUGAGAGAUACCAGUGAAGCCACAUGAGGAUCACCCAUGUCCCUCACUCCGGCCCACCCUUGGCAGCUCGAAAGAUGGA [Exclusion Theophylline B GF 21]" cat="condition met"
sequence_text="GGGAAAGGAGAAGAUACCAGCCGCCUCACAAGUCUACACUACAUGAGGAUCACCCAUGUGGGCCCUUGGCAGCUUGACCGCGAAA [theeternabot_exclusion_MS2_Theo_B_20]" cat="condition met"
sequence_text="CAGUGAGAGUCGGCCGCCACUUAACGCAAGUAGCGCAACCCAAAACAUGAGGAUCACCCAUGUCGAAGGACCGGGACAAUGAGCG [theeternabot_sameState_MS2_Trp_B_47]" cat="condition not met"
sequence_text="AGCGACAUGCAUGAUACCAGCUACAUGAGGAUCACCCAUGUACGUCAGUAAUGACUGUGUAGCCCUUGGCAGCAUAGAGCAUGUA [Exclusion - Theophylline B (Freestyle 14)]" cat="condition not met"
sequence_text="AGUAUCAGUGGAAGGAGCGUCGCGACUGCCACAUGAGGAUCACCCAUGUCGCCUUGAGCGCGACAGGUAGGUCGCCACGGUAGGC [SS-ArgB2]" cat="condition met"
sequence_text="CAGCCACAUGAGGAUCACCCAUGUGAUGAUACCAGCUUCGUCUUAAGCCCUUGGCAGCAUAUCUCUUUGUUCUCAUACAUAGCAU [theeternabot_sameState_MS2_Theo_A_16]" cat="condition not met"
